assay: Toxicity in AVA5 cells, neutral red dye uptake; conditions: human, AVA5 cells (HCV RNA replicating cell line derived from Huh7)
measurementName: CC50 at 3 days (µM)
Write the value in µM as a bare number.

Record request: CC50 at 3 days value, item NC(=O)c1ncn([C@@H]2O[C@H](CO)[C@@H](O)[C@H]2O)n1 74
